- experimentalTarget: T1, M8
- T1 construct: also called PD1 mutant M8
- experimentalDetails: scFv-phage ELISA
measure: OD490

Worked examples follow.
PD1-44B5 (antibody, V domains shown, scFv-phage in the screening ELISA; later whole IgG) VH: QVQLVESGGGVVQPGRSLRLSCAASGFTFSSYAMHWVRQAPGKGLEWVAVISYDGSNKYYADSVKGRFTISRDNSKNTLYLQMNSLRAEDTAVYYCARLMHTFSVQYFLDVWGQGTTVTVSS VL: QFVLTQSPSASGTPGQNIVISCSASTFNIGTTTVNWYQRLPGTAPKLLIYNYDQRPSGVPDRFSGSKSGTSASLAISGLQSEDEADYYCAAWDDSLNAWLFGGGTKLTVL: 3.5
PD1-48A9 (antibody, V domains shown, scFv-phage in the screening ELISA; whole IgG in the other assays) VH: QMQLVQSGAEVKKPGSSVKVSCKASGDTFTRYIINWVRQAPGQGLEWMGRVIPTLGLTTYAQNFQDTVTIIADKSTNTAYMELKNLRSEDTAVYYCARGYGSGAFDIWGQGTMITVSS VL: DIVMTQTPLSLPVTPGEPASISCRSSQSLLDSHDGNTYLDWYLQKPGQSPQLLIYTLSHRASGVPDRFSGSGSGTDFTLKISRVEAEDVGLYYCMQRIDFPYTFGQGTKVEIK: 1.7
PD1-41C9 (antibody, V domains shown, scFv-phage in the screening ELISA; whole IgG in the other assays) VH: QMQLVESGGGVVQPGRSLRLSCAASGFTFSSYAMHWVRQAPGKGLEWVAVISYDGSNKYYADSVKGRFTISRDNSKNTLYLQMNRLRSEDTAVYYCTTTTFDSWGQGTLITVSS VL: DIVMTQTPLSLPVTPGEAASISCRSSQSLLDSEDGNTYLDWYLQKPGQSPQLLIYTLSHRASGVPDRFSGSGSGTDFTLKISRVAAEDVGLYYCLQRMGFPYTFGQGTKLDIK: 2.5
PD1-52E8 (antibody, V domains shown, scFv-phage in the screening ELISA; whole IgG in the other assays) VH: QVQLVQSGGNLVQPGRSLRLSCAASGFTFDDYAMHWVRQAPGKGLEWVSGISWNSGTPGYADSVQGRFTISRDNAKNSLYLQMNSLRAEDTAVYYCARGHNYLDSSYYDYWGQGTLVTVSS VL: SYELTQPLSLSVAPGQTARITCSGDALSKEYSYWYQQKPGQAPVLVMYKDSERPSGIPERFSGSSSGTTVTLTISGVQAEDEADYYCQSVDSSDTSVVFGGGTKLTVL: 0.6

Now look at this one.
Entry PD1-45F1 (antibody, V domains shown, scFv-phage in the screening ELISA; later whole IgG) VH: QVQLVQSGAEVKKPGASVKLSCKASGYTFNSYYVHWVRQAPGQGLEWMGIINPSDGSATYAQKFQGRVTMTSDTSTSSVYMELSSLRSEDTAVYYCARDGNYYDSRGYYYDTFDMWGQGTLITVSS VL: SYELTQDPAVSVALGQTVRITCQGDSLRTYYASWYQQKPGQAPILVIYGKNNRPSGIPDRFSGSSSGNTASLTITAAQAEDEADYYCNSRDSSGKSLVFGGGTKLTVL ; OD490 = 3.9

These measurements were taken from patent US20190248900A1.
